B1: library; numbered along this chain (parent)
chain: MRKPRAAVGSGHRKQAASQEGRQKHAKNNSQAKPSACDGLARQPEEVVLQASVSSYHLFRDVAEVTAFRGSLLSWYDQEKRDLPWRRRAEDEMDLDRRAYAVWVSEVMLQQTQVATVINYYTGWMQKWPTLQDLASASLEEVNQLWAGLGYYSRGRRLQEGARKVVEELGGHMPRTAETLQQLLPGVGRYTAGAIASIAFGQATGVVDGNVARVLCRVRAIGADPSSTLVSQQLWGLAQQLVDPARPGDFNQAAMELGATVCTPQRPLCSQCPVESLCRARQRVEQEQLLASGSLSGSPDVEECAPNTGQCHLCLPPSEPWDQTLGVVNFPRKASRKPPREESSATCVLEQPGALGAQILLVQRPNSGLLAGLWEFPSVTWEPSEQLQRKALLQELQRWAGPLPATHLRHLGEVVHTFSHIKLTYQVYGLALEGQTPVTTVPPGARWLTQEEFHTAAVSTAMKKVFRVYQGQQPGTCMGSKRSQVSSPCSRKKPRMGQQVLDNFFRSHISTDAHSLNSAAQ

Variants of: B1
Procedure text: 8OG:A repair function score (normalized; synonymous = 0, nonsense = -1) (normalized log-likelihood score); higher = more repair activity (WT-like);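 further: cells sorted at 72 h after reporter transfection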
Recorded conditions: with 8OG:A DNA repair reporter (GFP) in HEK-293 MUTYH KO cells
Classification field: enter true for 8OG:A repair function score values not below -0.2, false for values below it.

Mutation list: Q470R
Label: true
--
Mutation list: P44I
Label: true
--
Mutation list: C347M
Label: true
--
Mutation list: L396P
Label: false
--
Mutation list: E64F
Label: false
--
Mutation list: W235P
Label: false
--
Mutation list: L361E
Label: false
--
Mutation list: T176Q
Label: true
--
Mutation list: E64Q
Label: true
--
Mutation list: A137W
Label: false
--
Mutation list: H508F
Label: true
--
Mutation list: L134H
Label: false
--
Mutation list: G368L
Label: false
--
Mutation list: R60D
Label: true
--
Mutation list: V107M
Label: true
--
Mutation list: K333I
Label: true
--
Mutation list: G475C
Label: true
--
Mutation list: P494D
Label: true
--
Mutation list: T346R
Label: false
--
Mutation list: A457Q
Label: false
--
Mutation list: R163L
Label: true
--
Mutation list: Y100T
Label: false
--
Mutation list: S136T
Label: true
--
Mutation list: D502C
Label: true
--
Mutation list: D512Y
Label: true
--
Mutation list: F504V
Label: true
--
Mutation list: P339F
Label: true
--
Mutation list: L516C
Label: true
--
Mutation list: K481N
Label: true
--
Mutation list: L58F
Label: true
--
Mutation list: Y190E
Label: false
--
Mutation list: P185S
Label: false
--
Mutation list: H410A
Label: false
--
Mutation list: K337W
Label: true
--
Mutation list: V261N
Label: false
--
Mutation list: V242A
Label: false
--
Mutation list: M478L
Label: true
--
Mutation list: T449S
Label: true
--
Mutation list: V465M
Label: false
--
Mutation list: P402S
Label: true
--
Mutation list: I198K
Label: false
--
Mutation list: T191W
Label: false
--
Mutation list: V142C
Label: true
--
Mutation list: T130R
Label: true
--
Mutation list: T176H
Label: true
--
Mutation list: A305T
Label: true
--
Mutation list: A192M
Label: false
--
Mutation list: P365M
Label: true
--
Mutation list: S518W
Label: true
--
Mutation list: Y151P
Label: false
--
Mutation list: P443K
Label: false
--
Mutation list: S480N
Label: true
--
Mutation list: L277Y
Label: true
--
Mutation list: A354D
Label: true
--
Mutation list: R364D
Label: false
--
Mutation list: A245E
Label: true
--
Mutation list: P331E
Label: false
--
Mutation list: E433K
Label: true
--
Mutation list: K337V
Label: true
--
Mutation list: A135H
Label: false
--
Mutation list: W124H
Label: false
--
Mutation list: Q472I
Label: true
--
Mutation list: E287N
Label: true
--
Mutation list: R389K
Label: false
--
Mutation list: P437H
Label: true
--
Mutation list: T439D
Label: false
--
Mutation list: N329Y
Label: true
--
Mutation list: P339T
Label: true
--
Mutation list: M462N
Label: false
--
Mutation list: L430N
Label: false
--
Mutation list: E319K
Label: true
--
Mutation list: S71N
Label: true
--
Mutation list: H312R
Label: true
--
Mutation list: L49Q
Label: true
--
Mutation list: T308Y
Label: true
--
Mutation list: Q286C
Label: true
--
Mutation list: W124Y
Label: false
--
Mutation list: L295H
Label: true
--
Mutation list: L49P
Label: true
--
Mutation list: G475N
Label: true
--
Mutation list: S153F
Label: true
--
Mutation list: K164R
Label: true
--
Mutation list: I221R
Label: false
--
Mutation list: Y76Q
Label: false
--
Mutation list: W146L
Label: false
--
Mutation list: L237M
Label: false
--
Mutation list: R86M
Label: false
--
Mutation list: R336V
Label: true
